Where do these numbers come from? They come from ChEMBL document CHEMBL4265930.

system: NCI-H2228; experiment: cells; details: Homo sapiens, NCI-H2228, 72 h
Description: Antiproliferative activity against human NCI-H2228 cells harboring EML4-ALK after 72 hrs by MTT assay
Threshold-based label: IC50 under 100 nM gives met, IC50 not under 100 nM gives not met.

# MOLECULE, ASSIGNED CLASS
measured = [
    ("CC(C)Sc1nc(N2CCCC2)ccc1Nc1ncc(Cl)c(Nc2ccccc2NS(C)(=O)=O)n1", "not met"),
    ("C/C=C/C(=O)Nc1ccccc1Nc1nc(Nc2ccc(N3CCNC(C)C3)nc2OC)ncc1Cl (centres undefined)", "not met"),
    ("COc1nc(N2CCCC2)ccc1Nc1ncc(Cl)c(Nc2ccccc2NS(=O)(=O)C2CC2)n1", "not met"),
    ("CS(=O)(=O)Nc1ccccc1Nc1nc(Nc2ccc(N3CCCC3)nc2)ncc1Cl", "not met"),
    ("COc1nc(N2CCN(C)CC2)ccc1Nc1ncc(Cl)c(Nc2ccccc2NS(C)(=O)=O)n1", "met"),
    ("COc1nc(N2CCCCC2)ccc1Nc1ncc(Cl)c(Nc2ccccc2NS(C)(=O)=O)n1", "not met"),
    ("CC(C)Sc1nc(N2CCN(C)CC2)ccc1Nc1ncc(Cl)c(Nc2ccccc2NS(C)(=O)=O)n1", "not met"),
    ("CC(C)Oc1nc(N2CCN(C)CC2)ccc1Nc1ncc(Cl)c(Nc2ccccc2NS(C)(=O)=O)n1", "met"),
    ("COc1nc(N2CCN(CCO)CC2)ccc1Nc1ncc(Cl)c(Nc2ccccc2NS(C)(=O)=O)n1", "met"),
]
